# Experiment Summary: Acute toxicity test, intravenous, mice
# Measurement Context: mouse, in vivo, male ddY mice, observed two weeks
Assay Endpoint: LD50 at 336 h (mg/kg)
Answers are plain numbers, in mg/kg.

Problem: What value of LD50 at 336 h has been reported for the following compound? COC(=O)C1=C(C)NC(C)=C(C(=O)OC2CC(C)(C)Oc3ccccc32)C1c1cccc(Cl)c1Cl (stereo not shown)
Result: 29.7
